# TESTED_ON: T1, human gastric inhibitory peptide receptor (GIPR) (human, UniProt P48546 22-466)
# T1 sequence (looked up): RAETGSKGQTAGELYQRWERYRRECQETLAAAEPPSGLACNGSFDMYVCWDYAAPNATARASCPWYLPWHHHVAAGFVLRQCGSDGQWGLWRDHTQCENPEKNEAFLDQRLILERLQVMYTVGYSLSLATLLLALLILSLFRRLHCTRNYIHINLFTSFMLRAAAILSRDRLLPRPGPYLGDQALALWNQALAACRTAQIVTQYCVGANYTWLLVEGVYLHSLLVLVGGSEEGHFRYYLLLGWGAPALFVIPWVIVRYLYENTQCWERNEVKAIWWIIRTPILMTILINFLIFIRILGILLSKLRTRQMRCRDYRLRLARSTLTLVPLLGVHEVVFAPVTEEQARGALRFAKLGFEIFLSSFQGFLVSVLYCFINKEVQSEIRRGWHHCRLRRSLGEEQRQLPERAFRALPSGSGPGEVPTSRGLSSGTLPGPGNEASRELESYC
# ASSAY_TEXT: cell-based or functional assay
Square brackets hold non-standard residues; d marks the D form. Ends that are not written are not given here. αMeF = C[C@](N)(Cc1ccccc1)C(=O)O; Aib = CC(C)(N)C(=O)O
Below, each entry is listed alongside its reported hGIPR cAMP Rel EC50.
Answer format: numeric, nM implied, no suffix.

binder="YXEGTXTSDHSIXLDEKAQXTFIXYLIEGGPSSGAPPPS (Y-Aib-EGT-αMeF(2F)-TSDHSI-αMeF-LDEK((2-[2-(2-Amino-ethoxy)-ethoxy]-acetyl)2-(γ-Glu)-CO-(CH2)14-CO2H)AQ-Aib-TFI-(D-Glu)-YLIEGGPSSGAPPPS-NH2) [Example 170]" result_value=0.569
binder="Y[Aib]EGT[αMeF]TSDYSIXLDKKAQ[Aib]HFIEYLIEGGPSSGAPPPS-NH2 (not fully specified (residues 13, 17); printed as Y-Aib-EGT-αMeF-TSDYSI-αMeF-LDKK((2-[2-(2-Amino-ethoxy)-ethoxy]-acetyl)2-(γ-Glu)-CO-(CH2)18-CO2H)AQ-Aib-HFIEYLIEGGPSSGAPPPS-NH2) [Example 142]" result_value=0.0489

Then this binder:
Report measured hGIPR cAMP Rel EC50; entry is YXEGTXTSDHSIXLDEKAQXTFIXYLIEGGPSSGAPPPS (Y-Aib-EGT-αMeF(2F)-TSDHSI-αMeF-LDEK((2-[2-(2-Amino-ethoxy)-ethoxy]-acetyl)2-(γ-Glu)-CO-(CH2)18-CO2H)AQ-Aib-TFI-(D-Glu)-YLIEGGPSSGAPPPS-NH2) [Example 168]
0.572
